- Tested on: K4 kissing-loop RNA reporter
- ASSAY_NAME: apparent KD of K4 kissing-loop reporter; higher = weaker reporter binding
- CONDITION_CONTEXT: Eterna round: R107; input ligand: theophylline 20 uM
apparent KD of K4 kissing-loop reporter values, listed per item
OUTCOME_MEASURE: apparent KD of K4 kissing-loop reporter (nM)

{"columns": ["RESIDUE_CODES", "RESULT_VALUE"],
 "data": [
  ["UUUUAUUAAUUCUUCUAGUGAUGUUAGAUACGAGGACCGGUACGGCCGCCACUCGCUUAUUGGUUUAUAAAUUUUAUAUUAUUUA [JR_SSTryptoA_Sub016]", 294],
  ["AGUGAUGUGGGAAGGAGCGGUUAAUGAAUUCAGUGAUGUUGAAGUGAUGCUGAAAUGAUGUGCCAGGUAGGUCGCCUAGAUGUUA [KL-XARG B28]", 164],
  ["UGGAGUUGACGAAAAGUCAACUCCUGGGAAGGAGCGGACGAAAGUCCAGGUAGGUCGCCCACUACCAGUGAUGUUGGUACUUCAA", 254],
  ["AUGUGGAGCGACGUUUAGAGAAACCGGGAAGGAGCGCGGAUAACCGCAGGUAGGUCGCCUGGUUGCCAGUGAUGUUGGCGACGUG [Exclusion Arg A GF 25]", 96],
  ["UGUCAUUGGUCGGCCGCCACUAGGACCGGGUAUAACCUAGUGAUGUUAGUGAGUACGGCCGCCACUAGGACCGGGACCGAUGACU [KL-SSTryp-B120 #DoubleAptamer]", 572],
  ["ACGCUGGAUGAAUAACAUCUAGCGAAAAUUCGAGGACCGGUACGGCCGCCACUCGAGCUAACUGCGAGUGAUGUUCGAUAAUAAA [Mat - Mod of OpenEnded 3 - D6]", 497],
  ["AAGUGUGUGGCGGCCGCCACUAGAAUCCAGUGAUGUUGGAGUUAUCAUAUAAUUGAUAAUCAACAUAGGACCGGGCCAUAUAGAA [Same State - Tryptophan B (Freestyle 6)]", 511],
  ["UUAUAUUUUAUAUUUAGAUGAUCUAUAGCACGAGGACCGGUACGGCCGCCACUCGAGUGAUGUUCGAGAGCUAUAGAUCAUCAUU [AK2.2 EXC Tryptophan A]", 121],
  ["CUAGCCGGGAAAGGAUAUACACACGCACAUAACGAGUGAUGUUCGUUAAUACCAACUUGGUUAACUGUAGAAGGUUCAUCGUCAC [theeternabot_sameState_KL_FMN_B_36]", 793],
  ["AAAGUCGGCUGUGAUACCAGUCAUAUAACAACAUAUCGCAGUGAUGUUGCGAGAUAGGAUGACCCUUGGCAGCACUCAGUACGAU [Same State Theophylline B GF 6]", 331],
  ["UGGGUGUAGUGAUGUUAUAUAGAGAGUGAUACCAGCUUAGAGAGAAGCCCUUGGCAGCAUAGAAGAGUAUCAUUGGAGGAGGAGG [ExTheophyl.Ay]", 668],
  ["UUCUACGUGCAAGGAUAUCCAUACGCUGCUAAGCGGGUAGCGAUAUAUGGAGUGAUGUUCCAUGUAGGAGAAGGUGCACUGUCCU [Rieser]", 253]
]}

---

- Test system: MS2 coat protein
- ASSAY_NAME: apparent KD of MS2 coat protein; higher = weaker reporter binding
- CONDITION_CONTEXT: Eterna round: R107; input ligand: none
Decision: apparent KD of MS2 coat protein >= 40 nM yields met, all other cases yield not met.

{"columns": ["RESIDUE_CODES", "SYSTEM_TESTED", "DISCRETE_LABEL"],
 "data": [
  ["GCCAUCGGCGGAAGCCGAUGGGAUACAGAAGGAGCGCGGAUUAACGCAGGUAGGUCGCUGGACAUGAGGAUCACCCAUGUAAUAG [SSAA #9]", "MS2 coat protein", "not met"],
  ["GACCGAUUAUAGUGCGAUUCUCUUGUGGAAGGAGCGCAGAGGACUGCAGGUAGGUCGCCACAUGAGGAUCACCCAUGUCAGGAUA [Esxebiat]", "MS2 coat protein", "met"],
  ["UAUCCACAUGAGGAUCACCCAUGUUAGGAAGGAGCGGUGAAUGAACCAGGUAGGUCGCCUAGCUGAGGACCAUCAAUGGAUUCGU [Exclusion - Arginine A (Freestyle 14)]", "MS2 coat protein", "not met"],
  ["GGGCAAGAGGGAAGGAGCGUCAGCUGAGUCACAUGAGGAUCACCCAUGUAGCACAUAGUGUGACAGGUAGGUCGCCCUCUGCCCU [SS-ArgB5]", "MS2 coat protein", "not met"],
  ["GGGCGCUAUCCCGCGAGGGAUAGCGUUCGACGAGGACCGGUACGGCCGCCACUCGAACGAGUGGGUACAUGAGGAUCACCCAUGU [Gaa]", "MS2 coat protein", "not met"],
  ["AUACAUGAGGAUCACCCAUGUCAUUCAGAAGGAGCGUCAUUUUAGACAGGUAGGUCGCUGAUAGUAUUUUUAUACUUUAUGUUUA [JR_SSArginiA_Sub015]", "MS2 coat protein", "not met"],
  ["GAUUUAACAAAAGUUGGAUCAGUGGGUGAACGAGGACCGGUACGGCCGCCACUCGGACAUGAGGAUCACCCAUGUCCAUGUGAAA [AstrosExyTryA#19]", "MS2 coat protein", "met"],
  ["UGAUGGUGCGGAAGGAGCGUGUAAGAACAAGAACAUGAGGAUCACCCAUGUAUUAAUUUAACACAGGUAGGUCGCCGUGUUAUUG [11.K]", "MS2 coat protein", "not met"],
  ["ACGUAAUGCAGAAGGAGCGUCUUAUGUAUACAUGAGGAUCACCCAUGUAAUAUGUGGUUGAGACAGGUAGGUCGCUGAAGUACGA [JR_SSArginiB_Sub009]", "MS2 coat protein", "met"],
  ["GCUGUGAAGUCGGCCGCCACUGGUUAGUUUAACCUCAUGUAACAUGAGGAUCACCCAUGUAAUGUCAGGACCGGGACAACAGCAA [JR_ExcTryptoB_Sub016]", "MS2 coat protein", "met"],
  ["GUUAUGGACCUGGAUACCAGCUGGUACGAGGGCGGUCUACAUGAGGAUCACCCAUGUGUCAGCCCUUGGCAGCCAGCAACCCGCU [Raquleer]", "MS2 coat protein", "not met"]
]}

---

- System: K4 kissing-loop RNA reporter;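 also: bound reporter read as fluorescence of individual clusters on recovered sequencing chips by microscopy, with normalized cluster intensities fitted with a binding model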
- ASSAY_NAME: apparent KD of K4 kissing-loop reporter; higher = weaker reporter binding
- CONDITION_CONTEXT: Eterna round: R107; input ligand: FMN 200 uM
Assign class 1 whenever apparent KD of K4 kissing-loop reporter does not fall below 0.2 µM; assign class 0 whenever it does.

{"columns": ["RESIDUE_CODES", "SYSTEM_TESTED", "DISCRETE_LABEL"],
 "data": [
  ["GCCGUACGCAUGGAUACCAGCUAGACCGAGUGAUGUUCAGGUCUGAAUGCCGGUAAUAAGAGCCCUUGGCAGCCAUGCGUACGGC", "K4 kissing-loop RNA reporter", "class 1"],
  ["GGUAUCUAUACAGAUACCAGUCGUACAGCACCAUUACAGGUUAGUGAUGUUAACCUGUACGACCCUUGGCAGCUGUAUUAUAAUA [#15 K4 Theophylline B Exclusion]", "K4 kissing-loop RNA reporter", "class 0"],
  ["UGUGAGCUGUCGACAAAAGUCGACUAAAAUGAGGAUAUGACGAAAGUCAGAAGGCAUCAAUAAUGGAGUGAUGUUCCUGCUCACU [FmnA 9 U30+A56]", "K4 kissing-loop RNA reporter", "class 1"],
  ["GGUGACGACCAGAGGUGAUGUAUAGUAUCGCGAGGACCGGUACGGCCGCCACUCGUGAAGAGAAAGGAGUGAUGUUCCGUAAUGG [Kazoo C9]", "K4 kissing-loop RNA reporter", "class 1"],
  ["AUGUGGAGCGACGUUUAGAGAAACCGGGAAGGAGCGCGGAUAACCGCAGGUAGGUCGCCUGGUUGCCAGUGAUGUUGGCGACGUG [Exclusion Arg A GF 25]", "K4 kissing-loop RNA reporter", "class 0"],
  ["UGUAAGCGCGUAGAUACCAGCAGACGAGUGAUGUUCGAGAGAUUAAGGAAAAGAAAGUAAUGCCCUUGGCAGCUAAUCAUAAGCG [whbob_Ex_Theo_B_sa94]", "K4 kissing-loop RNA reporter", "class 1"],
  ["UGGAGUUGACGAAAAGUCAACUCCAGAGAAGGAGCGGACGAAAGUCCAGGUAGGUCGCUCACUACCAGUGAUGUUGGUACUUGAA", "K4 kissing-loop RNA reporter", "class 1"],
  ["UGUCAUUGGUCUGAUACCAGUUAGACCGAUAGGUCAAAACUGGAGUGAUGUUCCCAAAAUAACCCUUGGCAGCAGACCGAUGACU [TheoBS 3 #SwitchBubble #StaticStem]", "K4 kissing-loop RNA reporter", "class 1"],
  ["AAUAACUAGUAUAUUUUUAAUAAUACAGAUACCAGUGAUAAUAGACACCCUUGGCAGCUGAUCGAGUGAUGUUCGUUUAUUUUAA [#11 K4 Theophylline A Same State]", "K4 kissing-loop RNA reporter", "class 0"],
  ["AGACCCUGGUAGGAUACCAGCGGCAUGCAGUGCGAGAGAGCGUAGUGAUGUUACGAGACCCGCCCUUGGCAGCCUGGGAAUGUGU [theeternabot_exclusion_KL_Theo_B_50]", "K4 kissing-loop RNA reporter", "class 0"],
  ["AGGAUCCGUCGACAAAAGUCGACAUAAUCCGAGGAUAUGACGAAAGUCAGAAGGUGGACAUAAGUCCAGUGAUGUUGGAGGAUCC [FmnA 17 #SwitchBubble #K4Late]", "K4 kissing-loop RNA reporter", "class 1"],
  ["GGCCGCAAGGCGAGCGCUCCCACUCCGGAAGGAGCGCCCGCAAGGGCAGGUAGGUCGCCGGAGUGAUGUUCCGGUGGAGGGCUCG [#2 Exclusion - Arginine A Attempt #16 (Inspired by Omei)]", "K4 kissing-loop RNA reporter", "class 1"]
]}
